- ASSAY_NAME: Bioanalysis of brain and plasma samples (UPLC-MS/MS)
- Format: in vivo, Sprague Dawley rats
- DETAILS: male, Sprague Dawley, brain and plasma, po; rat, p.o., 10 mg/kg, 0.5 h; read-out: Brain/Plasma ratio
REPORTED_ENDPOINT: Kp at 0.5 h
The reply should be a number, written without any unit.

What Kp at 0.5 h value was documented for this compound, [2H]C([2H])([2H])Oc1cnc(C(=O)Nc2ccc(F)c([C@]3(C)CC[C@@](F)(CF)C(N)=N3)c2)cn1 ?
1.8

---

Target or system BACE1 (Homo sapiens, UniProt P56817): recorded Ki listed per item.
Report as a plain number; the unit nM is understood.

Guide cases for Ki, answers given:
> print(dat)
                                   molecule  numeric.readout
1  [2H]C([2H])([2H])Oc1cnc(C(=O)Nc2ccc(F)c([C@]3(CF)CC[C@@](F)(CF)C(N)=N3)c2)cn1               14
2  [2H]C([2H])([2H])Oc1cnc(C(=O)Nc2cc(F)c(F)c([C@]3(C)CC[C@](F)(CF)C(N)=N3)c2)cn1               84
3  [2H]C([2H])([2H])Oc1cnc(C(=O)Nc2ccc(F)c([C@]3(C)CC[C@@](F)(CF)C(N)=N3)c2)cn1               17

Now consider the entry below.
// fetch BACE1 (Homo sapiens, UniProt P56817) Ki for [2H]C([2H])([2H])Oc1cnc(C(=O)Nc2cc(F)c(F)c([C@]3(C)CC[C@@](F)(CF)C(N)=N3)c2)cn1
9.8

---

- ASSAY_NAME: Bioanalysis of brain and plasma samples (UPLC-MS/MS)
- Type: in vivo, Sprague Dawley rats
- DETAILS: male, Sprague-Dawley, brain/plasma, po; rat, p.o., 20 mg/kg, 3 h; read-out: Brain/Plasma ratio
REPORTED_ENDPOINT: Kp at 3 h
Please give the numeric answer without any surrounding text.

What measured Kp at 3 h goes with [2H]C([2H])([2H])Oc1cnc(C(=O)Nc2ccc(F)c([C@]3(C)CC[C@@](F)(CF)C(N)=N3)c2)cn1 ?
3.4

---

- ASSAY_NAME: Bioanalysis of brain and plasma samples (UPLC-MS/MS)
- Assay type: in vivo, Sprague Dawley rats
- DETAILS: male, Sprague Dawley, plasma, po; rat, p.o., 10 mg/kg, 12 h; read-out: Mean rat plasma conc.
REPORTED_ENDPOINT: concentration at 12 h (ng/mL)
Number in ng/mL, nothing else.

Dear colleague, I am looking for the recorded concentration at 12 h of the following compound: [2H]C([2H])([2H])Oc1cnc(C(=O)Nc2ccc(F)c([C@]3(C)CC[C@@](F)(CF)C(N)=N3)c2)cn1 [Example 1]
79

---

- ASSAY_NAME: Clearance in hepatocytes, cyno
- Assay type: in vitro ADME
- DETAILS: cynomolgus monkey, 1 microM, read-out: CLint, Cyno (L/h/kg) ± SD (converted)
Measured CLint scaled at 1 µM accompanies every entry in the list below.
Just the number please, in L/h/kg, no unit attached.

Example compounds with recorded CLint scaled at 1 µM:
> print(dat)
                                   molecule  numeric.readout
1  COc1cnc(C(=O)Nc2ccc(F)c([C@]3(C)CC[C@@](F)(CF)C(N)=N3)c2)cn1               75
2  [2H]C([2H])([2H])Oc1cnc(C(=O)Nc2ccc(F)c([C@]3(C)CC[C@@](F)(CF)C(N)=N3)c2)cn1               20

Pending compound:
Which CLint scaled at 1 µM value is on record for [2H]C([2H])([2H])Oc1ccc(C(=O)Nc2ccc(F)c([C@@]3(C(F)F)N=C(N)CCC3(F)F)c2)nc1 ?
14

---

- ASSAY_NAME: Bioanalysis of brain and plasma samples (UPLC-MS/MS)
- Assay type: in vivo, Sprague Dawley rats
- DETAILS: male, Sprague-Dawley, brain, po; rat, p.o., 40 mg/kg, 0.5 h; read-out: Mean rat brain conc.
REPORTED_ENDPOINT: concentration at 0.5 h
Please state the number and follow it with the unit.

Need concentration at 0.5 h of [2H]C([2H])([2H])Oc1cnc(C(=O)Nc2ccc(F)c([C@]3(C)CC[C@@](F)(CF)C(N)=N3)c2)cn1 , thanks.
2500 ng/g

---

Each record here notes measured CLint scaled at 1 µM.
- ASSAY_NAME: Clearance in hepatocytes, dog
- Type: in vitro ADME
- DETAILS: 1 microM, read-out: CLint, Dog (L/h/kg) ± SD (converted)
Write the value in L/h/kg as a bare number.

Please review the following examples before continuing.
> print(dat)
                                   molecule  numeric.readout
1  COc1cnc(C(=O)Nc2ccc(F)c([C@]3(C)CC[C@@](F)(CF)C(N)=N3)c2)cn1               64
2  [2H]C([2H])([2H])Oc1cnc(C(=O)Nc2ccc(F)c([C@]3(C)CC[C@@](F)(CF)C(N)=N3)c2)cn1               11

--- query ---
Any idea what its CLint scaled at 1 µM is? The compound is [2H]C([2H])([2H])Oc1ccc(C(=O)Nc2ccc(F)c([C@@]3(C(F)F)N=C(N)CCC3(F)F)c2)nc1
57

---

- ASSAY_NAME: Bioanalysis of brain and plasma samples (UPLC-MS/MS)
- Type: in vivo, Sprague Dawley rats
- DETAILS: male, Sprague-Dawley, brain/plasma, po; rat, p.o., 20 mg/kg, 0.5 h; read-out: Brain/Plasma ratio
REPORTED_ENDPOINT: Kp at 0.5 h
Number, no unit, nothing else.

Would you mind telling me what Kp at 0.5 h value was observed for [2H]C([2H])([2H])Oc1cnc(C(=O)Nc2ccc(F)c([C@]3(C)CC[C@@](F)(CF)C(N)=N3)c2)cn1 [Example 1] ?
2.9

---

- ASSAY_NAME: Clearance in hepatocytes, human
- Assay type: in vitro ADME
- DETAILS: 1 microM, read-out: CLint, Human (L/h/kg) ± SD (converted)
Recorded CLint scaled at 1 µM for the following compounds
Quick note: give the figure in L/h/kg, leave out the unit.

> print(dat)
                                   molecule  numeric.readout
1  [2H]C([2H])([2H])Oc1ccc(C(=O)Nc2ccc(F)c([C@@]3(C(F)F)N=C(N)CCC3(F)F)c2)nc1             0.29

Then this compound:
Quick one: CLint scaled at 1 µM of COc1cnc(C(=O)Nc2ccc(F)c([C@]3(C)CC[C@@](F)(CF)C(N)=N3)c2)cn1 ?
0.72

---

- ASSAY_NAME: Clearance in microsomes, human
- Assay type: in vitro ADME
- DETAILS: 0.1 microM, read-out: CLint, Human (L/h/kg) ± SD (converted)
REPORTED_ENDPOINT: CLint scaled at 0.1 µM (L/h/kg)
Give the number; L/h/kg is assumed, so skip it.

Requested field: CLint scaled at 0.1 µM. Item: COc1cnc(C(=O)Nc2ccc(F)c([C@]3(C)CC[C@@](F)(CF)C(N)=N3)c2)cn1
1

---

- ASSAY_NAME: Bioanalysis of brain and plasma samples (UPLC-MS/MS)
- Assay type: in vivo, Sprague Dawley rats
- DETAILS: male, Sprague-Dawley, brain, po; rat, p.o., 20 mg/kg, 3 h; read-out: Mean rat brain conc.
REPORTED_ENDPOINT: concentration at 3 h (ng/g)
Give just the numeric value; ng/g need not be written.

Look up concentration at 3 h for this molecule: [2H]C([2H])([2H])Oc1cnc(C(=O)Nc2ccc(F)c([C@]3(C)CC[C@@](F)(CF)C(N)=N3)c2)cn1
1960

---

- ASSAY_NAME: Bioanalysis of brain and plasma samples (UPLC-MS/MS)
- Type: in vivo, Sprague Dawley rats
- DETAILS: male, Sprague-Dawley, brain, po; rat, p.o., 20 mg/kg, 6 h; read-out: Mean rat brain conc.
REPORTED_ENDPOINT: concentration at 6 h (ng/g)
Field: numeric (ng/g). Do not append units.

Entry under review: [2H]C([2H])([2H])Oc1cnc(C(=O)Nc2ccc(F)c([C@]3(C)CC[C@@](F)(CF)C(N)=N3)c2)cn1 . Reported concentration at 6 h?
1540

---

- ASSAY_NAME: Bioanalysis of brain and plasma samples (UPLC-MS/MS)
- Assay type: in vivo, Sprague Dawley rats
- DETAILS: male, Sprague-Dawley, plasma, po; rat, p.o., 40 mg/kg, 0.5 h; read-out: Mean rat plasma conc.
REPORTED_ENDPOINT: concentration at 0.5 h (ng/mL)
Numeric answer only, unit ng/mL assumed.

Suppose we examine the compound [2H]C([2H])([2H])Oc1cnc(C(=O)Nc2ccc(F)c([C@]3(C)CC[C@@](F)(CF)C(N)=N3)c2)cn1 [Example 1] ; what concentration at 0.5 h value has been reported?
740
